TEST SYSTEM: Protein kinase C epsilon type (Homo sapiens) (UniProt Q02156)
Sequence (Q02156 whole entry): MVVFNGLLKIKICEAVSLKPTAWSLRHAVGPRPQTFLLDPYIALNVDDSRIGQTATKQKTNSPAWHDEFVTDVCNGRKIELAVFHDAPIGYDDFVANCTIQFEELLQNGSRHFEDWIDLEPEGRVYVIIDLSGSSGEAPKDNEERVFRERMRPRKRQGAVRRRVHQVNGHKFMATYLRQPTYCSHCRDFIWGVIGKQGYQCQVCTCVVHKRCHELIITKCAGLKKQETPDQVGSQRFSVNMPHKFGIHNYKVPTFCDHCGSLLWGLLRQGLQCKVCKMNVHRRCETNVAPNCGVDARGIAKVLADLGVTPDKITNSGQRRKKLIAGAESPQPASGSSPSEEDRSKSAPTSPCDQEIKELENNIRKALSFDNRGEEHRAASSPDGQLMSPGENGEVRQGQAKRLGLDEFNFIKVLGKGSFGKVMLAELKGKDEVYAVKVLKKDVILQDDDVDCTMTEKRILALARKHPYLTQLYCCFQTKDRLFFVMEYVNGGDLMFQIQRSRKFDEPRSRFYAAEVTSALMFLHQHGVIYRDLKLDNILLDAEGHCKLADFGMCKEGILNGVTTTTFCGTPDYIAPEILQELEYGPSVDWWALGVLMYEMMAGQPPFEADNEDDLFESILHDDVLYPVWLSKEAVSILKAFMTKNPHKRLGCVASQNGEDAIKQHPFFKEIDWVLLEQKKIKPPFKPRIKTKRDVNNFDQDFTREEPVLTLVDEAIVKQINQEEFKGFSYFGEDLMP
TEST DETAILS: Inhibition of recombinant PKCepsilon (unknown origin)-MBP-tagged RACK2 interaction after 1 hr by ELISA-based assay relative to untreated control
Parameters: concentration or dose not given beside the values
TEST CONTEXT: values are per cent of control
Listing of recorded residual binding, % of control by entry.
METRIC NAME: residual binding, % of control (%)

[[record]]
chemical_smiles = "COc1ccc2cc3c(N)c(C(=O)Nc4c(C)cccc4C)sc3nc2c1"
test_system = "Protein kinase C epsilon type (Homo sapiens) (UniProt Q02156)"
result = 60.8

[[record]]
chemical_smiles = "C/C(=N\\OCC(=O)O)c1cccc(NC(=O)c2sc3nc4cc5c(cc4cc3c2N)OCCO5)c1"
test_system = "Protein kinase C epsilon type (Homo sapiens) (UniProt Q02156)"
result = 59.3

[[record]]
chemical_smiles = "CC(=O)c1cccc(NC(=O)c2sc3nc4cc5c(cc4cc3c2N)OCO5)c1"
test_system = "Protein kinase C epsilon type (Homo sapiens) (UniProt Q02156)"
result = 58.9

[[record]]
chemical_smiles = "CCOc1ccc2nc3sc(C(=O)Nc4ccc(F)cc4)c(N)c3cc2c1"
test_system = "Protein kinase C epsilon type (Homo sapiens) (UniProt Q02156)"
result = 60.5

